# ASSAY: Plitidepsin whole blood pharmacokinetics, non-compartmental
# Assay type: in vivo
# MEASUREMENT_PARAMETERS: human, iv, Dose level 3 (RD cohort) 5.0/1.3/40.0, Day 1 of Cycle 1, NCA, mean (SD), n = 9, read-out: V ss (volume of distribution at steady-state)
Numbered stars: 1 amine (or outer) side, 2 acyl side, 3 side chain; on linkers, the order of the positions; unused ones are H or OH. Bridge positions count the residues as written; N and C are the ends. Square brackets hold non-standard residues; d marks the D form. Peptide text beside a SMILES is read from it. * marks the point of attachment. X1 = CC[C@H](C)[C@@H](N[*:1])[C@@H](O)CC(=O)O[C@H](C(=O)[C@H](C)C(=O)[*:2])C(C)C; NMeY = CN[C@@H](Cc1ccc(O)cc1)C(=O)O; dNMeL = CN[C@H](CC(C)C)C(=O)O; Pyruvoyl = CC(=O)C(=O)*
READOUT: Vd (L)
Give the quantity in L, number only.

Prompt: May I ask what Vd has been recorded for CC[C@H](C)[C@H]1NC(=O)[C@@H](NC(=O)[C@@H](CC(C)C)N(C)C(=O)[C@@H]2CCCN2C(=O)C(C)=O)[C@@H](C)OC(=O)[C@H](Cc2ccc(OC)cc2)N(C)C(=O)[C@@H]2CCCN2C(=O)[C@H](CC(C)C)NC(=O)[C@@H](C)C(=O)[C@H](C(C)C)OC(=O)C[C@@H]1O [Plitidepsin, plitidepsin] (Pyruvoyl-P[dNMeL]T[X1]LP[NMeY](Me); ester 3-C (inferred); N-terminus assumed) ?
Completion: 341

----------
# ASSAY: Plitidepsin whole blood pharmacokinetics, non-compartmental
# Assay type: in vivo
# MEASUREMENT_PARAMETERS: human, iv, Dose level 1 4.0/1.0/40.0, Day 1 of Cycle 1, NCA, mean (SD), n = 5, read-out: HL (terminal half-life) (converted)
Numbered stars: 1 amine (or outer) side, 2 acyl side, 3 side chain; on linkers, the order of the positions; unused ones are H or OH. Bridge positions count the residues as written; N and C are the ends. Square brackets hold non-standard residues; d marks the D form. Peptide text beside a SMILES is read from it. * marks the point of attachment. X1 = CC[C@H](C)[C@@H](N[*:1])[C@@H](O)CC(=O)O[C@H](C(=O)[C@H](C)C(=O)[*:2])C(C)C; NMeY = CN[C@@H](Cc1ccc(O)cc1)C(=O)O; dNMeL = CN[C@H](CC(C)C)C(=O)O; Pyruvoyl = CC(=O)C(=O)*
READOUT: half-life (h)
Numeric only. Scale: h

Prompt: Which half-life is listed for CC[C@H](C)[C@H]1NC(=O)[C@@H](NC(=O)[C@@H](CC(C)C)N(C)C(=O)[C@@H]2CCCN2C(=O)C(C)=O)[C@@H](C)OC(=O)[C@H](Cc2ccc(OC)cc2)N(C)C(=O)[C@@H]2CCCN2C(=O)[C@H](CC(C)C)NC(=O)[C@@H](C)C(=O)[C@H](C(C)C)OC(=O)C[C@@H]1O [Plitidepsin, plitidepsin] (Pyruvoyl-P[dNMeL]T[X1]LP[NMeY](Me); ester 3-C (inferred); N-terminus assumed) ?
Completion: 40.1

----------
# ASSAY: Plitidepsin whole blood pharmacokinetics, non-compartmental
# Assay type: in vivo
# MEASUREMENT_PARAMETERS: human, iv, Dose level 3 (RD cohort) 5.0/1.3/40.0, Day 1 of Cycle 1, NCA, mean (SD), n = 9, read-out: AUC (time zero to infinity)
Numbered stars: 1 amine (or outer) side, 2 acyl side, 3 side chain; on linkers, the order of the positions; unused ones are H or OH. Bridge positions count the residues as written; N and C are the ends. Square brackets hold non-standard residues; d marks the D form. Peptide text beside a SMILES is read from it. * marks the point of attachment. X1 = CC[C@H](C)[C@@H](N[*:1])[C@@H](O)CC(=O)O[C@H](C(=O)[C@H](C)C(=O)[*:2])C(C)C; NMeY = CN[C@@H](Cc1ccc(O)cc1)C(=O)O; dNMeL = CN[C@H](CC(C)C)C(=O)O; Pyruvoyl = CC(=O)C(=O)*
READOUT: AUC(0-inf) (ng·h/mL)
Record the value in ng·h/mL, omitting the unit from your answer.

Prompt: Fill in: AUC(0-inf) of CC[C@H](C)[C@H]1NC(=O)[C@@H](NC(=O)[C@@H](CC(C)C)N(C)C(=O)[C@@H]2CCCN2C(=O)C(C)=O)[C@@H](C)OC(=O)[C@H](Cc2ccc(OC)cc2)N(C)C(=O)[C@@H]2CCCN2C(=O)[C@H](CC(C)C)NC(=O)[C@@H](C)C(=O)[C@H](C(C)C)OC(=O)C[C@@H]1O [Plitidepsin, plitidepsin] (Pyruvoyl-P[dNMeL]T[X1]LP[NMeY](Me); ester 3-C (inferred); N-terminus assumed) is ___
Completion: 1060
